Tested on: INS1
assay.remarks: INS-1E survival protection against cytokine death – cell-based, luminescence, retest, dose response (AID 449756);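 further: cell death triggered by IL-1 beta plus TNF-alpha plus IFN-gamma mixture; protective hits raise ATP signal compared with cytokine alone wells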
Format: functional
assay.context: Rattus norvegicus
The source made the active and inactive calls.
experimental.endpoint: AC50

compound	value.reported
c1ccc2c(c1)OCC(CNc1ncnc3sccc13)O2 (configuration not stated)	0.941 µM (active)
Cc1ccc(NC(=O)c2nc(S(=O)(=O)Cc3ccccc3)ncc2Cl)cc1	9.27 µM (active)
CCOC(=O)c1ccc(NC(=O)NCc2cccnc2)cc1	2.09 µM (active)
C=CC[n+]1c(-c2ccc(OCC)cc2)csc1NNC(=O)Nc1ccccc1	6.63 µM (active)
O=C(CNc1cccc2ccccc12)N/N=C/c1ccc([N+](=O)[O-])o1	5.58 µM (active)
O=C(CC(O)(C(F)(F)F)C(F)(F)F)Nc1ccc(Cl)c(Cl)c1	2.44 µM (active)

Now let's try a different one.
Per the record, "COc1ccc(-c2sc3ccccc3c2-c2ccc(OCCN(C)C)cc2)cc1" has AC50 of 8.01 µM (active)

----------
compounds and their reported IC50
measured.target: Carboxy-terminal domain RNA polymerase II polypeptide A small phosphatase 1 (Homo sapiens, UniProt Q9GZU7)
Sequence (Q9GZU7 whole entry, the tested form may be a part): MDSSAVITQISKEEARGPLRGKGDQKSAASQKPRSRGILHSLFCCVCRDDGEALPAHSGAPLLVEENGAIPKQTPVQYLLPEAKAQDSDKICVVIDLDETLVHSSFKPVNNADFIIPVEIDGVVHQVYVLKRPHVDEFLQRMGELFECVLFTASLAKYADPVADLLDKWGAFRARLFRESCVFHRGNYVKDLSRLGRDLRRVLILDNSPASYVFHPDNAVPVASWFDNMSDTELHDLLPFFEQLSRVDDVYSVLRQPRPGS
assay.remarks: CTDSP1 inhibitors, concentration-response, biochemical, absorbance readout, ultra-high-throughput screen actives (AID 540297)
Type: functional
The source made the active and inactive calls.

compound	IC50
O=C(Cn1ncc(Cl)c(Cl)c1=O)NC1CCS(=O)(=O)C1 (stereo unspecified)	8.49 µM (active)
COc1ccc2c(c1)c(=O)oc1c(C)c(OC(C)C(=O)N[C@@H](Cc3c[nH]c4ccc(O)cc34)C(=O)O)ccc12 (stereo partly specified)	6.88 µM (active)
Nc1cc([N+](=O)[O-])ccc1N1C(=O)CCCC1=O	10.8 µM (active)
O=C(O)c1cc(-c2ccc(/C=N/NC(=S)Nc3ccccc3)o2)ccc1Cl	12.1 µM (active)
COc1cc(/C=C2\C(=N)N3N=C(S(C)(=O)=O)SC3=NC2=O)ccc1OCCOc1ccc(C)cc1	3.15 µM (active)

Now let's try a different one.
Per the record, C[n+]1ccccc1C1CCCC/C1=N\NC(N)=S (stereo unspecified) has IC50 of 5.71 µM (active)

----------
molecules and their reported IC50
measured.target: Calpain-2 catalytic subunit (Sus scrofa)
Sequence (P43367 whole entry): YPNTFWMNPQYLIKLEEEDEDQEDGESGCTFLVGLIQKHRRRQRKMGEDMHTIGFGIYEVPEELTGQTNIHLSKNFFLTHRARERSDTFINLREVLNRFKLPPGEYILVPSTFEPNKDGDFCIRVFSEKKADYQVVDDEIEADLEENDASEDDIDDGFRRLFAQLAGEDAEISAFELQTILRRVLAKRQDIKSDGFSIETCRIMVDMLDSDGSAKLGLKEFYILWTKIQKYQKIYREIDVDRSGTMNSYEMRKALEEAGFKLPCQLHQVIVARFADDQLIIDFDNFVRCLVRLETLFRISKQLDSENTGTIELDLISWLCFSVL
assay.remarks: m-calpain protease blockers, concentration series – biochemical, fluorogenic peptide substrate, dose response (AID 1420)
Type: functional
Activity calls are given as the source filed them.

Observe how each entry below is paired with its result.
molecule	value.reported
CC1CCN(c2nc3nonc3nc2Nc2ccc(F)cc2)CC1	11.7 µM (not active)
CC(C)C(=O)Nc1ncc(Cc2ccc(Cl)cc2)s1	5.63 µM (not active)
c1ccc(-c2ccc(C(c3ccccc3)n3ccnc3)cc2)cc1 (stereo unspecified)	14.7 µM (not active)

Reported IC50 (Calpain-2 catalytic subunit (Sus scrofa)) for entry "FC(F)(F)c1nnc2ccc(NCc3ccccc3)nn12" is 2.23 µM (active)

Reported IC50 (Calpain-2 catalytic subunit (Sus scrofa)) for entry "O=C(O)c1cccc(NC(=S)N/N=C/c2ccccc2OCc2cccc(Br)c2)c1" is > 50 µM (not active)

Reported IC50 (Calpain-2 catalytic subunit (Sus scrofa)) for entry "O=C(c1ccco1)N(Cc1cccc([N+](=O)[O-])c1)c1ccc(Br)cc1" is 12 µM (not active)

----------
measured.target: UniProtKB P26358
Sequence (P26358 whole entry): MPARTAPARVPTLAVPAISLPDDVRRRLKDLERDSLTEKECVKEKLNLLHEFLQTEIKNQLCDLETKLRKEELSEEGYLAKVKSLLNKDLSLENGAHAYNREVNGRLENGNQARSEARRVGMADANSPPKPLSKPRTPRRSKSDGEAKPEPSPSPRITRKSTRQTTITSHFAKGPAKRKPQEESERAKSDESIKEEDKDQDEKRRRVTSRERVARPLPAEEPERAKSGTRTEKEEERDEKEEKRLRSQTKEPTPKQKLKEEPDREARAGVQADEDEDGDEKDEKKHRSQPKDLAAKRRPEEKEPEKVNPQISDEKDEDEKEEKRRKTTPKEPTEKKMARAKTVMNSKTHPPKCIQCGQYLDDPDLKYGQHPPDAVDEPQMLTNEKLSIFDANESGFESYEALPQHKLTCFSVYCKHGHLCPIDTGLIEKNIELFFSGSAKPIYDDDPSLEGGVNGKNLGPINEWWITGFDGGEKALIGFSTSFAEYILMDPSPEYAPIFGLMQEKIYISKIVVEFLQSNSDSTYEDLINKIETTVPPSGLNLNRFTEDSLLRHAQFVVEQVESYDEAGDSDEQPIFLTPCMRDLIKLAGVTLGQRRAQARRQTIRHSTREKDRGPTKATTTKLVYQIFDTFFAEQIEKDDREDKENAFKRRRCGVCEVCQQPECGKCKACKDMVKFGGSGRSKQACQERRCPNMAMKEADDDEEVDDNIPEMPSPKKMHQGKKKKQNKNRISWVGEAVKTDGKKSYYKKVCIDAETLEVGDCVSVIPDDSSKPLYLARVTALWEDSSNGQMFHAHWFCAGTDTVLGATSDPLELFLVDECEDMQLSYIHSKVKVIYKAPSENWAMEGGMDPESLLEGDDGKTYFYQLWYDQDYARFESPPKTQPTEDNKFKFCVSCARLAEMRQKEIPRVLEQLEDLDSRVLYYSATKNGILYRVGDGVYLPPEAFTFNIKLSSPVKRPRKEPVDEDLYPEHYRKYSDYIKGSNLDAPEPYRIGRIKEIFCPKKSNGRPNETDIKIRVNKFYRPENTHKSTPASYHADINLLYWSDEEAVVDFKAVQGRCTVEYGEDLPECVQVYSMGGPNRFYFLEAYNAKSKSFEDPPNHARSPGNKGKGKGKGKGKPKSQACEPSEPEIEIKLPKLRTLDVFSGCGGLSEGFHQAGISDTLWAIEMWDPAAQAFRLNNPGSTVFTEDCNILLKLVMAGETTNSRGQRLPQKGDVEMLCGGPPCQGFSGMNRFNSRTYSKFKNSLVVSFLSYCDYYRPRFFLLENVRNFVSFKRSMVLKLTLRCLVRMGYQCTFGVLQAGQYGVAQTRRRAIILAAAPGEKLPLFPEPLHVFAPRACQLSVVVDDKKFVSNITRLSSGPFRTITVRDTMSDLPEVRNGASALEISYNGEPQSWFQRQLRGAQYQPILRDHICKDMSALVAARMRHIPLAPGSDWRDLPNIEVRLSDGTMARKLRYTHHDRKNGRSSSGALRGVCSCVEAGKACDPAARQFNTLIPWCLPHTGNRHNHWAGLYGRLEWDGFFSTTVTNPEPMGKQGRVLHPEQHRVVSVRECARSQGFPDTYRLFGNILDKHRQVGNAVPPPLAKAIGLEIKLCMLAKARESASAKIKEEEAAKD
assay.remarks: inhibition of DNA methylation by DNMT1 – biochemical, fluorescent molecular beacon, confirmation (AID 602386)
Type: functional
The source made the active and inactive calls.
Write down the outcome that applies. Available outcomes: T = active, F = inactive

Look over these answered cases.
O=C1NC(=S)N/C1=C/c1cc2c(cc1[N+](=O)[O-])OCO2 T
C=CCOc1ccc(C=NNc2ccc(S(=O)(=O)Nc3ccccc3C(=O)O)cc2[N+](=O)[O-])cc1OC T
COc1cc(NS(=O)(=O)c2ccc(NC(=S)NC(=O)/C=C/c3ccco3)cc2)ncn1 T
COc1ccc(Br)cc1/C=N/Nc1ccc(S(=O)(=O)Nc2ccccc2C(=O)O)cc1[N+](=O)[O-] T
Cc1ccc(-n2cccc2/C=C2/C(=N)N3C(=NC2=O)SN=C3S(C)(=O)=O)cc1Cl T

From here, focus on the item given below.
Recorded call for "CCN(CC)CCNc1nc2cc(OC)c(OC)cc2c2nc(-c3ccccc3)nn12" ? F

----------
measured.target: UniProtKB Q9QUQ5
Sequence (Q9QUQ5 whole entry): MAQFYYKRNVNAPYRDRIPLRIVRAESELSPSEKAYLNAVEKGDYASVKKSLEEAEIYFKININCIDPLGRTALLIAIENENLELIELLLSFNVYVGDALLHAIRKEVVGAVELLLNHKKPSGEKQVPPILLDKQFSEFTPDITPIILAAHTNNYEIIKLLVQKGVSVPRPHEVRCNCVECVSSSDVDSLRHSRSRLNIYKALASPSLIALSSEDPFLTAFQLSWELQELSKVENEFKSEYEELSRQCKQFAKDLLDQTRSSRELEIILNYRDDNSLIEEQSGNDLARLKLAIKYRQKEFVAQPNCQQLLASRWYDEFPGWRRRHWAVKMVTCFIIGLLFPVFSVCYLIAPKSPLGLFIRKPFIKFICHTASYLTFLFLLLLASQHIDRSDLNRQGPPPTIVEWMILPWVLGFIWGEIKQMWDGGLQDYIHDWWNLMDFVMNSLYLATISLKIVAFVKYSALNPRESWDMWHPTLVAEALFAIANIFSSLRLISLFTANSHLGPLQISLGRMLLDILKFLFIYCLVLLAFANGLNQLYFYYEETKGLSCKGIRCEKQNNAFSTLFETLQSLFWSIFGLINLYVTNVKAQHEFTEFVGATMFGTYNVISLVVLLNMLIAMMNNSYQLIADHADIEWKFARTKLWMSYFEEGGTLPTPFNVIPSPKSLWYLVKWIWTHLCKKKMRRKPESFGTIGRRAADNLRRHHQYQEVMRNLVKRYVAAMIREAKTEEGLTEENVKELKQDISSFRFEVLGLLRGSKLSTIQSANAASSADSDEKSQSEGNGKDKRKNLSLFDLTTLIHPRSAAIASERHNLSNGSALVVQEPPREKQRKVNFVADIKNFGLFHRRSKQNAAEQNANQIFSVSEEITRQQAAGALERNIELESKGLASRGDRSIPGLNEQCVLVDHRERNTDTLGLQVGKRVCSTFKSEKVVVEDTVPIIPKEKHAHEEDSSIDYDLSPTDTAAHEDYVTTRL
assay.remarks: block of DAMGO-driven TRPC4 calcium entry – cell-based, HEK293 TRPC4/mu-opioid, Fluo-4 calcium, dose response (AID 434942);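 further: potency of inhibitors blocking the TRPC4 calcium response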
Type: functional
Active and inactive are the calls of the source.
experimental.endpoint: EC50

Observe how each entry below is paired with its result.
molecule	EC50
CCC(O)C1CCN(Cc2cn(-c3ccc(OC)cc3)nc2-c2cccc(F)c2)CC1 (stereo not drawn)	10.6 µM (active)
Cc1ccc(C)c2nc3sc(C(=O)O)cc3cc12	5.31 µM (active)

Per the record, "Brc1ccc(CN2C3=NCCCN3c3ccccc32)cc1" has EC50 of 0.531 µM (active)

----------
measured.target: Probable nicotinate-nucleotide adenylyltransferase (Staphylococcus aureus (strain N315), UniProt P65502);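 further: confirmatory retest of primary uHTS inhibitor hits against NadD over a range of doses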
Sequence (P65502 whole entry): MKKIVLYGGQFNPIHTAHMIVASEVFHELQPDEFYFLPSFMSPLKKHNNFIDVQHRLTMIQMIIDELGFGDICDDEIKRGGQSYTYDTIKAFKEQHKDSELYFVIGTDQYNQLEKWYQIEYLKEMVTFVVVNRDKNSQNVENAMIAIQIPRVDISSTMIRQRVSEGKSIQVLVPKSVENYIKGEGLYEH
Assay type: functional, Staphylococcus aureus subsp. aureus N315
Activity calls are given as the source filed them.
experimental.endpoint: IC50

Per the record, Cc1ccc(C2CC(c3cccs3)=NN2C(=O)CSc2nc(=O)n3ccc(C)cc3n2)cc1 (stereo not given) has IC50 of 5.52 µM (active)

Per the record, N#CC1=C(S)N=C(N)C(c2nc(-c3ccccc3)cs2)C12CCCCC2 (stereo not given) has IC50 of 10.4 µM (active)

Per the record, "O=C(O)c1cccc(NC(=S)N/N=C/c2ccccc2OCc2cccc(Br)c2)c1" has IC50 of 5.97 µM (active)

Per the record, "Cc1c([N+](=O)[O-])cc(N2C(=O)C=CC2=O)cc1[N+](=O)[O-]" has IC50 of 3.77 µM (active)

Per the record, "COc1ccc(Br)cc1/C=N/Nc1ccc(S(=O)(=O)Nc2ccccc2C(=O)O)cc1[N+](=O)[O-]" has IC50 of 3.24 µM (active)

----------
measured.target: Rac GTPase-activating protein 1 (Homo sapiens, UniProt Q9H0H5)
Sequence (Q9H0H5 whole entry): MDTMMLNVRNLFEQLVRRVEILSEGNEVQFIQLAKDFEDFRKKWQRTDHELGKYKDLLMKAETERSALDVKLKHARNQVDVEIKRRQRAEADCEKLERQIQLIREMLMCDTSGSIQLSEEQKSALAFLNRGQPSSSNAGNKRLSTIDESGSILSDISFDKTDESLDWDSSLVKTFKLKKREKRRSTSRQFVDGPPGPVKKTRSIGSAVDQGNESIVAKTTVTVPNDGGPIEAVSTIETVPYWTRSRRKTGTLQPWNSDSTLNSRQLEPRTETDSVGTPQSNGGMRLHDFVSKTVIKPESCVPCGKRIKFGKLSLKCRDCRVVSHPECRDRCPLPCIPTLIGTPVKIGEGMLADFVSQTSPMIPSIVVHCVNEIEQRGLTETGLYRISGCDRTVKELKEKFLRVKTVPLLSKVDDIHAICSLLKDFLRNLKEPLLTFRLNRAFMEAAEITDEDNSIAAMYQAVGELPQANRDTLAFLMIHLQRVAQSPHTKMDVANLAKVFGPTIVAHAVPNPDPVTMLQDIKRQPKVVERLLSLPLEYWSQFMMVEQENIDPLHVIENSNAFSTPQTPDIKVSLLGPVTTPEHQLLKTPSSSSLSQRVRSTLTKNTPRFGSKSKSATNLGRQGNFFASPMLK
assay.remarks: blockers of MgcRacGAP-driven Rac1 GTP hydrolysis – biochemical, ADP Hunter fluorescence, primary and confirmatory, confirmation (AID 624330)
Assay type: functional
The source made the active and inactive calls.
compounds and their reported IC50

compound	value.reported
CCOc1cc(/C=C2\N=C(SC(C)C(N)=O)N(c3ccc(OC(F)F)cc3)C2=O)ccc1O (configuration not stated)	91.2 µM (active)
O=C(NCc1ccco1)c1sc(=S)n2c1[nH]c(=O)c1ccccc12	75.6 µM (active)
COc1ccc(/C=N/NC(=O)c2cc[n+]([O-])cc2)cc1O	38.2 µM (active)
COc1cc2c[n+](C)c3c4ccccc4ccc3c2cc1OC	60.5 µM (active)
CC[N+](CC)(CC)CCCCOc1ccc2c(c1)C(=O)c1cc(OCCCC[N+](CC)(CC)CC)ccc1-2	221 µM (active)
C=CCn1c(CNc2ccc(C)cc2)nnc1SCC(=O)N/N=C/c1ccc(O)cc1O	85.1 µM (active)

Per the record, "CCOc1cc(CNc2ccc(N3CCCCC3)cc2)cc(Br)c1OCC(=O)NC(C)(C)C" has IC50 of 20.8 µM (active)

Per the record, "COc1ccc(/C=N/Nc2nc(N3CCCC3)nc(N3CCCC3)n2)cc1O" has IC50 of 62.2 µM (active)
